study-system: human muscarinic M1 receptor (Homo sapiens, UniProt P11229)
Sequence (P11229 whole entry): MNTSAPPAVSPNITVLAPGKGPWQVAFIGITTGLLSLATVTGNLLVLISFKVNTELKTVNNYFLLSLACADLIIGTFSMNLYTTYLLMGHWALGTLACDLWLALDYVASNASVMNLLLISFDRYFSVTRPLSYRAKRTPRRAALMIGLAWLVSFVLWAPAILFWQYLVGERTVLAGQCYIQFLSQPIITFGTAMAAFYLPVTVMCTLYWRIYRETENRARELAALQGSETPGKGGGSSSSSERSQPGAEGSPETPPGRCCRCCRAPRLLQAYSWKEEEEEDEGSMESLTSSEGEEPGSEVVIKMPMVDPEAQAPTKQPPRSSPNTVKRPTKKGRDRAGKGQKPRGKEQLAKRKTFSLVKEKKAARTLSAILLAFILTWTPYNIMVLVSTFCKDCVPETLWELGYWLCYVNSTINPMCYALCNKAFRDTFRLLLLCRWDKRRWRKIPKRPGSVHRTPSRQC
experiment-description: Alphascreen Surefire phospho-ERK1/2 functional assay, M1
Assay type: cell-based
condition-details: CHO, read-out: % Emax cf. ACh (M1), CHO cells stably expressing human M1; relative to ACh
Method: ERK1/2 phosphorylation is a downstream consequence of both Gq/11 and Gi/o protein coupled receptor activation, making it highly suitable for the assessment of M1, M3 (Gq/11 coupled) and M2, M4 receptors (Gi/o coupled), rather than using different assay formats for different receptor subtypes. CHO cells stably expressing the human muscarinic M1, M2, M3 or M4 receptor were plated (25K/well) onto 96-well tissue culture plates in MEM-alpha+10% dialysed FBS. […]
observable: Emax (%)

{"molecule": "CCOC(=O)N1CCC2(CC(N3CC4C(C3)C4N(CC)CC(F)(F)F)C2)C1 (mixture of isomers) [2-27 Mixture of isomers]", "Emax (%)": 20}
{"molecule": "CCOC(=O)N1CCC(N2C[C@@H]3[C@H](C2)[C@H]3C(=O)N(CC)CC)CC1", "Emax (%)": 84}
{"molecule": "CCOC(=O)[C@H]1[C@@H]2CN(C3CC4(C3)CN(C(=O)OCC)C4)C[C@@H]21", "Emax (%)": 115}
{"molecule": "CCOC(=O)N1CC2(CC(N3C[C@@H]4[C@H](C3)[C@H]4c3csc(C)n3)C2)C1", "Emax (%)": 55}

a: CCOC(=O)N1CCC2(CC(N3CC4C(C3)C4C(=O)N3CCC34CC4)C2)C1 (single isomer, unassigned) [2-19 Isomer 2]
b: CCOC(=O)N1CCC2(CC(N3C[C@@H]4[C@H](C3)[C@H]4c3ccnn3C)C2)C1 (single isomer, unassigned) [2-29 Isomer 2]
Asked: Could you kindly indicate whether a or b has the higher Emax value? The response must carry the label of the picked entry.
Given back: a
(a: 93%, b: 43%)

A: CCOC(=O)C1C2CN(C3CC4(CCN(C(=O)OCC)C4)C3)CC21 (mixture of isomers) [2-1 Mixture of isomers]
B: CCOC(=O)N1CC2(CC(N3C[C@@H]4[C@H](C3)[C@H]4C(=O)N(CC)CC)C2)C1
Asked: Could you kindly indicate whether A or B has the higher Emax value? The response must carry the label of the picked entry.
Given back: B
(B: 110%, A: 22%)

---

study-system: human muscarinic M1 receptor (Homo sapiens)
experiment-description: Alphascreen Surefire phospho-ERK1/2 functional assay, M1
Assay type: cell-based
condition-details: CHO cells stably expressing human M1; agonist 5 min, 37° C.
observable: pEC50 M1

{"molecule": "CCOC(=O)N1C2COCC1CC(N1CC3C(C1)C3C(=O)N1CCOCC1)C2 (single isomer, unassigned; isomer 2) [10-13 Isomer 2]", "result-number": 6.43}
{"molecule": "CCOC(=O)N1C2CCCC1CC(N1CC3C(C1)C3C(=O)N(C)CC)C2 (single isomer, unassigned; isomer 2) [9-1 Isomer 2]", "result-number": 6.01}
{"molecule": "CCN(C(=O)C1C2CN(C3CC4COCC(C3)N4C(=O)OC)CC21)C(C)C (single isomer, unassigned; isomer 2) [10-7 Isomer 2]", "result-number": 6.83}
{"molecule": "CCOC(=O)N1C2COCC1CC(N1CC3C(C1)C3C(=O)N1CCOCC1)C2 (single isomer, unassigned; isomer 1) [10-13 Isomer 1]", "result-number": 6.51}
